measurement_target: A-II receptor (Bos taurus, UniProt P25104)
Construct: An A-II receptor was prepared from the membrane fraction of bovine adrenal cortex; from tissue; host or cells: bovine adrenal cortex, membrane fraction
Sequence (P25104 whole entry): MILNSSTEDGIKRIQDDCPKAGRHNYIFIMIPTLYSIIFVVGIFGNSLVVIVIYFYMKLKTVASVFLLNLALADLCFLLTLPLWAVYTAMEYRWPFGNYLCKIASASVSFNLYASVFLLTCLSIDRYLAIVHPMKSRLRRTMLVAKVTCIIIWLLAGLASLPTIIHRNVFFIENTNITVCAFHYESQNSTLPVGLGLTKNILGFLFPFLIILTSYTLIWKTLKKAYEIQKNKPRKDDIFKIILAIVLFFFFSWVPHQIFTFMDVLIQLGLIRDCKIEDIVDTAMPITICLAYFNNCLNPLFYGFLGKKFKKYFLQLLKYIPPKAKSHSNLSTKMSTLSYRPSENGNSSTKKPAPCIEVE
test_name: Inhibition of binding of angiotensin-II to angiotensin receptor (radioreceptor assay, 125I-A-II)
Set-up: species or system bovine (membrane fraction of bovine adrenal cortex)
applied_conditions: 1 × 10^-5 M; bovine adrenal cortex membrane; 125I-A-II; 1 h room temperature; read-out: Radioreceptor assay, inhibition of A-II binding, 1 × 10^-5 M
Protocol: Inhibition of binding of angiotensin-II to angiotensin receptor An A-II receptor was prepared from the membrane fraction of bovine adrenal cortex.
If the reported inhibition at 10 µM equals or exceeds 90%, assign Criterion met. If not, assign Criterion not met.

compound	class_assignment
CCCCc1nc2c(C(=O)OC)cccc2n1Cc1ccc(-c2ccccc2-c2nn[nH]n2)cc1 [Reference Example 29, reference compound]	Criterion not met
CCCCc1nc2ccc(Cl)cc2n1Cc1ccc(-c2ccccc2-c2nn[nH]n2)cc1 [compound 21, reference compound]	Criterion not met
CCCCc1nc2c(C(N)=O)cccc2n1Cc1ccc(-c2ccccc2-c2nnn[nH]2)cc1 [compound 30, reference compound]	Criterion not met
COCc1nc2cccc(C(=O)O)c2n1Cc1ccc(-c2ccccc2-c2nnn[nH]2)cc1	Criterion not met
CCCCc1nc2cccc(C(=O)OCC)c2n1Cc1ccc(-c2ccccc2-c2nnn[nH]2)cc1	Criterion not met
CCCCc1nc2ccccc2n1Cc1ccc(-c2ccccc2C(=O)O)cc1 [compound 26, reference compound]	Criterion not met
CCCCc1nc2cccc(C(=O)OCc3oc(=O)oc3C)c2n1Cc1ccc(-c2ccccc2-c2nn[nH]n2)cc1	Criterion met
CCCCc1nc2ccc(C(=O)O)cc2n1Cc1ccc(-c2ccccc2-c2nn[nH]n2)cc1 [compound 50, reference compound]	Criterion not met
CCCCc1nc2ccccc2n1Cc1ccc(-c2ccccc2-c2nnn[nH]2)cc1 [Reference Example 17, reference compound]	Criterion not met
CC(C)c1nc2cccc(C(=O)O)c2n1Cc1ccc(-c2ccccc2-c2nnn[nH]2)cc1	Criterion met

From here, focus on the item given below.
Enquiry: Would you say `CCCc1nc2cccc(C(=O)O)c2n1Cc1ccc(-c2ccccc2-c2nn[nH]n2)cc1` shows inhibition at 10 µM at minimum 90%?
Return: Criterion met

----------
measurement_target: A-II receptor (Bos taurus)
Construct: An A-II receptor was prepared from the membrane fraction of bovine adrenal cortex; from tissue; host or cells: bovine adrenal cortex, membrane fraction
test_name: Inhibition of binding of angiotensin-II to angiotensin receptor (radioreceptor assay, 125I-A-II)
Parameters: species or system bovine (membrane fraction of bovine adrenal cortex)
applied_conditions: 1 × 10^-5 M; bovine adrenal cortex membrane; 125I-A-II; 1 h room temperature; read-out: Radioreceptor assay, inhibition of A-II binding, 1 × 10^-5 M
assay_metric: inhibition at 10 µM (%)
Value expressed in %; do not type the unit.

Below, each entry is followed by its recorded inhibition at 10 µM result.
compound	measurement_target	inhibition at 10 µM / %
CCCCc1nc2cccc(C(=O)O)c2n1Cc1ccc(-c2ccccc2-c2nn[nH]n2)cc1	A-II receptor (Bos taurus)	91
CCCCc1nc2cc(C)cc(C(=O)OC)c2n1Cc1ccc(-c2ccccc2-c2nn[nH]n2)cc1	A-II receptor (Bos taurus)	92
CCCCc1nc2ccc(OC)cc2n1Cc1ccc(-c2ccccc2-c2nn[nH]n2)cc1 [compound 19, reference compound]	A-II receptor (Bos taurus)	88

Enquiry: Write down inhibition at 10 µM measured for item `CCCCc1nc2cc(C)cc(C(=O)O)c2n1Cc1ccc(-c2ccccc2-c2nn[nH]n2)cc1`
Return: 90

Enquiry: Give inhibition at 10 µM for the following compound: `CCCCc1nc2cccc(C(=O)OC)c2n1Cc1ccc(-c2ccccc2-c2nnn[nH]2)cc1`
Return: 90

----------
measurement_target: A-II receptor (Bos taurus)
Construct: An A-II receptor was prepared from the membrane fraction of bovine adrenal cortex; from tissue; host or cells: bovine adrenal cortex, membrane fraction
test_name: Inhibition of binding of angiotensin-II to angiotensin receptor (radioreceptor assay, 125I-A-II)
Parameters: species or system bovine (membrane fraction of bovine adrenal cortex)
applied_conditions: 1 × 10^-5 M; bovine adrenal cortex membrane; 125I-A-II; 1 h room temperature; read-out: Radioreceptor assay, inhibition of A-II binding, 1 × 10^-5 M
assay_metric: inhibition at 10 µM (%)
Express the result in % but write the number alone.

molecular_string	obs_value
CCCCc1nc2cccc(CO)c2n1Cc1ccc(-c2ccccc2-c2nnn[nH]2)cc1	90
CCCc1nc2cccc(C(=O)OC)c2n1Cc1ccc(-c2ccccc2-c2nnn[nH]2)cc1	92

Alright, here's another molecule for you.
Enquiry: Fill in inhibition at 10 µM for record `CCCCc1nc2cc(Cl)cc(C(=O)OC)c2n1Cc1ccc(-c2ccccc2-c2nnn[nH]2)cc1`
Return: 91
